Data provenance is ChEMBL document CHEMBL1137579.

experiment: Tmax in Beagle dog at 10 mg/kg, po; type: ADME, organism-based, Canis lupus familiaris; design: dose 10 mg/kg, route oral; conditions: in vivo, read-out: Tm

{"columns": ["smiles string", "Tmax / h"],
 "data": [
  ["Cc1ccc(N2CCN(C(=O)[C@H](C)Cc3ccc(Cl)cc3)CC2)c([C@@H](NC(=O)CCN(C)C)C(C)C)c1", 1.7]
]}

* * *

assay: Cmax in Sprague-Dawley rat at 10 mg/kg, po; type: ADME, organism-based; set-up: dose 10 mg/kg, route oral; conditions: in vivo

{"columns": ["smiles string", "Cmax"],
 "data": [
  ["Cc1ccc(N2CCN(C(=O)[C@H](C)Cc3ccc(Cl)cc3)CC2)c([C@@H](NC(=O)CCN(C)C)C(C)C)c1", "279 ng/mL"]
]}

* * *

assay: Tmax in Sprague-Dawley rat at 10 mg/kg, po; type: ADME, organism-based; parameters: dose 10 mg/kg, route oral; settings: in vivo, read-out: Tm

{"columns": ["smiles string", "uom", "Tmax"],
 "data": [
  ["Cc1ccc(N2CCN(C(=O)[C@H](C)Cc3ccc(Cl)cc3)CC2)c([C@@H](NC(=O)CCN(C)C)C(C)C)c1", "h", 2.7]
]}

* * *

assay: AUC in Sprague-Dawley rat at 10 mg/kg, po; type: ADME, organism-based; parameters: dose 10 mg/kg, route oral; settings: plasma
result type: AUC (ng·h/mL)

{"columns": ["smiles string", "result type", "experimental value"],
 "data": [
  ["Cc1ccc(N2CCN(C(=O)[C@H](C)Cc3ccc(Cl)cc3)CC2)c([C@@H](NC(=O)CCN(C)C)C(C)C)c1", "AUC", 1520]
]}

* * *

// reported concentration at 1 h for each item listed
assay: Drug level in rat brain at 10 mg/kg, po after 1 hr; assay type: ADME, organism-based; design: dose 10 mg/kg, route oral; conditions: read-out: Drug uptake

{"columns": ["smiles string", "relation qualifier", "concentration at 1 h, ng/g"],
 "data": [
  ["Cc1ccc(N2CCN(C(=O)[C@H](C)Cc3ccc(Cl)cc3C)CC2)c([C@@H](NC(=O)CCN(C)C)C(C)C)c1", "=", 9],
  ["CNCCN[C@H](c1cc(C)ccc1N1CCN(C(=O)[C@H](C)Cc2ccc(Cl)cc2F)CC1)C(C)C", "<", 5],
  ["Cc1ccc(N2CCN(C(=O)[C@H](C)Cc3ccc(Cl)cc3)CC2)c([C@@H](NC(=O)CCN(C)C)C(C)C)c1", "=", 20],
  ["CNCCC(=O)N[C@H](c1cc(C)ccc1N1CCN(C(=O)[C@H](C)Cc2ccc(Cl)cc2)CC1)C(C)C", "<", 5],
  ["Cc1ccc(N2CCN(C(=O)[C@H](C)Cc3ccc(Cl)cc3F)CC2)c([C@@H](NC(=O)CCN(C)C)C(C)C)c1", "=", 8]
]}

* * *

assay: Oral bioavailability in rhesus monkey at 10 mg/kg, po; assay type: ADME, organism-based, Macaca mulatta; conditions: in vivo

{"columns": ["smiles string", "uom", "bioavailability"],
 "data": [
  ["Cc1ccc(N2CCN(C(=O)[C@H](C)Cc3ccc(Cl)cc3)CC2)c([C@@H](NC(=O)CCN(C)C)C(C)C)c1", "%", 19]
]}

* * *

test: Cmax in rhesus monkey at 10 mg/kg, po; assay type: ADME, organism-based, Macaca mulatta; parameters: dose 10 mg/kg, route oral; details: in vivo
result type: Cmax (ng/mL)

{"columns": ["smiles string", "uom", "experimental value"],
 "data": [
  ["Cc1ccc(N2CCN(C(=O)[C@H](C)Cc3ccc(Cl)cc3)CC2)c([C@@H](NC(=O)CCN(C)C)C(C)C)c1", "ng/mL", 761]
]}

* * *

// reported AUC for each item listed
test: AUC in rat at 10 mg/kg, po; type: ADME, organism-based; design: dose 10 mg/kg, route oral; details: plasma

{"columns": ["smiles string", "AUC"],
 "data": [
  ["CNCCN[C@H](c1cc(C)ccc1N1CCN(C(=O)[C@H](C)Cc2ccc(Cl)cc2F)CC1)C(C)C", "299 ng·h/mL"],
  ["Cc1ccc(N2CCN(C(=O)[C@H](C)Cc3ccc(Cl)cc3F)CC2)c([C@@H](NC(=O)CCN(C)C)C(C)C)c1", "1470 ng·h/mL"],
  ["Cc1ccc(N2CCN(C(=O)[C@H](C)Cc3ccc(Cl)cc3C)CC2)c([C@@H](NC(=O)CCN(C)C)C(C)C)c1", "1950 ng·h/mL"],
  ["Cc1ccc(N2CCN(C(=O)[C@H](C)Cc3ccc(Cl)cc3)CC2)c([C@@H](NC(=O)CCN(C)C)C(C)C)c1", "1400 ng·h/mL"],
  ["CNCCC(=O)N[C@H](c1cc(C)ccc1N1CCN(C(=O)[C@H](C)Cc2ccc(Cl)cc2)CC1)C(C)C", "563 ng·h/mL"]
]}

* * *

assay: Cmax in Beagle dog at 10 mg/kg, po; assay type: ADME, organism-based, Canis lupus familiaris; set-up: dose 10 mg/kg, route oral; conditions: in vivo
result type: Cmax (ng/mL)

{"columns": ["smiles string", "result type", "experimental value"],
 "data": [
  ["Cc1ccc(N2CCN(C(=O)[C@H](C)Cc3ccc(Cl)cc3)CC2)c([C@@H](NC(=O)CCN(C)C)C(C)C)c1", "Cmax", 262]
]}

* * *

biological target: Melanocortin receptor 4 (Homo sapiens); assay: Activity at MC4R expressed in HEK293 cells assessed as stimulation of cAMP release at 10 uM relative to alpha-MSH; assay type: functional, cell-based
// reported Activity for each item listed
result type: Activity (%)

{"columns": ["smiles string", "result type", "experimental value"],
 "data": [
  ["CNCC(=O)N[C@H](c1cc(C)ccc1N1CCN(C(=O)[C@H](C)Cc2ccc(Cl)cc2F)CC1)C(C)C", "Activity", 12],
  ["Cc1ccc(N2CCN(C(=O)[C@H](C)Cc3ccc(Cl)cc3F)CC2)c([C@@H](N)C(C)C)c1", "Activity", 5],
  ["CNCCN[C@H](c1cc(C)ccc1N1CCN(C(=O)[C@H](C)Cc2ccc(Cl)cc2F)CC1)C(C)C", "Activity", 7],
  ["Cc1ccc(N2CCN(C(=O)[C@H](C)Cc3ccc(Cl)cc3C)CC2)c([C@@H](N)C(C)C)c1", "Activity", 2]
]}

* * *

experiment: Tmax in rat at 5 mg/kg, iv or 10 mg/kg, po; assay type: ADME, organism-based; details: in vivo
result type: Tmax (h)

{"columns": ["smiles string", "experimental value"],
 "data": [
  ["Cc1ccc(N2CCN(C(=O)[C@H](C)Cc3ccc(Cl)cc3)CC2)c([C@@H](NC(=O)CCN(C)C)C(C)C)c1", 4.7]
]}

* * *

assay: Volume of distribution in CD1 mouse at 2.5 mg/kg, iv; type: ADME, organism-based; parameters: dose 2.5 mg/kg, route intravenous; conditions: in vivo

{"columns": ["smiles string", "uom", "Vd"],
 "data": [
  ["Cc1ccc(N2CCN(C(=O)[C@H](C)Cc3ccc(Cl)cc3)CC2)c([C@@H](NC(=O)CCN(C)C)C(C)C)c1", "L/kg", 4.1]
]}
